The entries below are paired with their reported CD28 MFI at 33.3 nM.
- Target Entity: CD28 (Homo sapiens, UniProt P10747)
- Test Details: Flow binding to Jurkat/IL2 reporter cells (CD28)
- Design: host or cells: Jurkat cells expressing an IL-2-luciferase reporter
- Settings: Table E20; Jurkats (CD28); 33.3 nM
Respond using a number only.

Example results:
Q) Which CD28 MFI at 33.3 nM value belongs to H18Y/A26E/V68M/A71G (protein) VIHVTKEVKEVATLSCGYNVSVEELEQTRIYWQKEKKMVLTMMSGDMNIWPEYKNRTIFDITNNLSIMILGLRPSDEGTYECVVLKYEKDAFKREHLAEVTLSVKAD ?
A) 99.4

Q) Which CD28 MFI at 33.3 nM value belongs to A26E/E35D/V68M/D90G (protein) VIHVTKEVKEVATLSCGHNVSVEELEQTRIYWQKDKKMVLTMMSGDMNIWPEYKNRTIFDITNNLSIMILALRPSDEGTYECVVLKYEKGAFKREHLAEVTLSVKAD ?
A) 1683

Q) Which CD28 MFI at 33.3 nM value belongs to A26E/M47L/V68M/A71G (protein) VIHVTKEVKEVATLSCGHNVSVEELEQTRIYWQKEKKMVLTMMSGDLNIWPEYKNRTIFDITNNLSIMILGLRPSDEGTYECVVLKYEKDAFKREHLAEVTLSVKAD ?
A) 98.7

Others:
Q) Which CD28 MFI at 33.3 nM value belongs to A26E/M47L/A71G/D90G (protein) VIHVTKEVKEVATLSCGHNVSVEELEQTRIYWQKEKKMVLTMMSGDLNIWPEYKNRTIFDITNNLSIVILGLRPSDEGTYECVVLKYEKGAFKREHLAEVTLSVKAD ?
A) 1955
